target: Chromobox protein homolog 7 (Homo sapiens); assay: blockers of CBX7 binding to H3K27me3 peptide – biochemical, AlphaScreen, primary screen (AID 1224903); conditions: AlphaScreen His6-CBX7 / biotin-H3K27me3 peptide binding, stronger effect = lower value; measured here: z-score of CBX7 signal
The whole screen tested about 66,000 compounds, of which about 720 (1.1%) were called active. This is one part of a sample in which actives are shown more often than they occur.
Measured z-score by item
Output spec: single numeric token, no unit.

molecule=CCOC(=O)c1sc(NC(=O)c2ccc(OCC)cc2)nc1-c1ccccc1 assayed_system="Chromobox protein homolog 7 (Homo sapiens)" recorded_value=-0.166

Prompt: For the molecule shown here, O=C(Nc1ccccc1C(F)(F)F)N1CCN(c2ccc3nnc(-c4ccccc4)n3n2)CC1 , give the reported z-score.
Response: -3.38

Prompt: Item COc1ccc(S(=O)(=O)NCCc2c(C)[nH]c3ccc(C)cc23)cc1C has what recorded z-score?
Response: -1.43

Prompt: Given the entry CC1CCCCN1CCCNC(=O)C1CCC(=O)N1C1CCCC1 (configuration not stated) , report its measured z-score.
Response: 1.64
